molecular target: CCK receptor (brain, cerebral cortex) (Cavia porcellus, UniProt H0VZC5); construct: Cerebral cortex was dissected and used as a receptor source; from tissue; host or cells: guinea pig cerebral cortex membranes (male Hartley); assay: biochemical; assay type: binding, Male Hartley guinea pigs; details: read-out: IC50 ^125 I-CCK Brain; guinea pig cerebral cortex, ^125 I-CCK-33, 25° C., 2 hours
Sequence (H0VZC5 1-426): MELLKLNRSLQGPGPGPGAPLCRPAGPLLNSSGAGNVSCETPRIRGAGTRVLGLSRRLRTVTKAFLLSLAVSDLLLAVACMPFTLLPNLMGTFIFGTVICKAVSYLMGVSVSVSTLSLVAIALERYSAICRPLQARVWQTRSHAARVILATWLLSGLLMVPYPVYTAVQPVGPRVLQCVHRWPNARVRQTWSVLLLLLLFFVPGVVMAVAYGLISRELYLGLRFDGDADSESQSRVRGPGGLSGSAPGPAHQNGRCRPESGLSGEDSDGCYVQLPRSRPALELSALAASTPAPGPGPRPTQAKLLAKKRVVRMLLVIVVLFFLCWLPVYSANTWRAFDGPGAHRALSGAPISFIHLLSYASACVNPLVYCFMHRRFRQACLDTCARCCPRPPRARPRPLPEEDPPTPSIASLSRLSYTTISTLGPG
pIC50: −log10 of the molar value.
metric: pIC50

> print(dat)
                                   compound  metric  modifier  measured.value
1  O=C(NCC1CNc2ccccc2C(c2ccccc2F)=N1)c1cc2ccccc2[nH]1 (racemic)   pIC50         =            4.47
2  CN1C(=O)[C@@H](Cc2cn(C(=O)c3ccc(Cl)cc3)c3ccccc23)N=C(c2ccccc2F)c2ccccc21   pIC50         <            4.00
3  O=C(O)CN1C(=O)[C@@H](Cc2c[nH]c3ccccc23)N=C(c2ccccc2F)c2ccccc21   pIC50         =            4.64
4  CN1C(=O)[C@@H](NC(=O)c2ccccc2Cl)N=C(c2ccccc2)c2ccccc21   pIC50         =            4.08
5  O=C(O)CCN1C(=O)[C@@H](Cc2c[nH]c3ccccc23)N=C(c2ccccc2F)c2ccccc21   pIC50         =            4.96
6  O=C1Nc2ccccc2C(c2ccccc2F)=N[C@@H]1CC1CNc2ccccc21 (some centres unmarked)   pIC50         <            4.00
7  CN1C(=O)[C@H](NC(=O)c2ccccc2Cl)N=C(c2ccccc2)c2ccccc21   pIC50         =            4.66
8  O=C(NC1N=C(c2ccccc2F)c2ccccc2NC1=O)c1cc2ccccc2o1 (racemic)   pIC50         =            4.49

###

target: Gastrin receptor (gastric glands) (Cavia porcellus); construct: The washed guinea pig gastric glands prepared as above were resuspended; from tissue; host or cells: guinea pig gastric mucosal glands (male Hartley); experiment: Gastrin Receptor Binding in Guinea Pig Gastric Glands; set-up: species or system guinea pig (male Hartley); settings: ^125 I-gastrin, 25° C., 30 minutes, read-out: IC50 ^125 I-Gastrin Gastric Glands
Sequence (H0VZC5 1-426): as above
pIC50: −log10 of the molar value.
// reported pIC50 per item
metric: pIC50

> print(dat)
                                   molecule  modifier  measured.value
1  CN1CCN(C(=O)CN2C(=O)C(NC(=O)Nc3ccc(Cl)cc3)N=C(c3ccccc3)c3ccccc32)CC1 (centres unmarked) [Example 237]         =            8.59
2  CN1C(=O)C(NC(=O)Nc2ccc([N+](=O)[O-])cc2)N=C(c2ccccc2)c2ccccc21 (centres unmarked) [Example 256]         =            8.01
3  COc1cccc(NC(=O)NC2N=C(c3ccccc3F)c3ccccc3N(C)C2=O)c1 (centres unmarked) [Example 246]         =            8.62
4  O=C(Nc1ccc(Cl)cc1)NC1N=C(c2ccccc2)c2ccccc2N(CC(=O)N2CCCC2)C1=O (centres unmarked) [Example 236]         =            9.30
5  O=C1Nc2ccccc2C(c2ccccc2F)=NC1CNc1cncc(Cl)n1 (racemic) [Example 70]         =            3.70
6  CN1C(=O)[C@@H](NC(=O)Nc2ccc(Cl)cc2)N=C(c2ccccc2)c2ccccc21 [Example 233]         =            6.24
7  CN1C(=O)[C@@H](NC(=O)c2ccc(Cl)cc2)N=C(c2ccccc2F)c2ccccc21 [Example 91]         =            6.10
8  CCCCCc1ccc(C(=O)N[C@H]2N=C(c3ccccc3)c3ccccc3N(C)C2=O)cc1 [Example 201]         <            4.00

###

molecular target: Gastrin receptor (gastric glands) (Cavia porcellus); construct: The washed guinea pig gastric glands prepared as above were resuspended; from tissue; host or cells: guinea pig gastric mucosal glands (male Hartley); experiment: Gastrin Receptor Binding in Guinea Pig Gastric Glands; set-up: species or system guinea pig (male Hartley); settings: IC50 ^125 I-Gastrin Gastric Glands, 25° C., 30 minutes
pIC50: −log10 of the molar value.
metric: pIC50

> print(dat)
                                   compound  modifier  measured.value
1  O=C(NC1N=C(c2ccccc2F)c2ccccc2NC1=O)c1cc2cc(Cl)ccc2[nH]1 (racemic)         <            5.00
2  CN1C(=O)C(NC(=O)NC(C)(C)C)N=C(c2ccccc2)c2ccccc21 (stereo not shown)         <            6.00
3  O=C(NC1N=C(c2ccccc2F)c2ccccc2NC1=O)c1ccc(C(F)(F)F)cc1 (racemic)         =            5.02
4  Cc1ccc(NC(=O)NC2N=C(c3ccccc3)c3ccccc3N(C)C2=O)cc1 (stereo not shown)         =            8.46

###

pIC50 listing for selected compounds.
target: CCK receptor (brain, cerebral cortex) (Cavia porcellus, UniProt H0VZC5); construct: Cerebral cortex was dissected and used as a receptor source; from tissue; host or cells: guinea pig cerebral cortex membranes (male Hartley); assay: biochemical; assay type: binding, Male Hartley guinea pigs; conditions: IC50 ^125 I-CCK Brain, guinea pig cerebral cortex, ^125 I-CCK-33, 25° C., 2 hours
pIC50: −log10 of the molar value.
metric: pIC50

> print(dat)
                                   compound  modifier  measured.value
1  CN1C(=O)[C@@H](Cc2c[nH]c3ccccc23)N=C(c2ccccc2)c2ccccc21         =            5.00
2  O=C(NC1N=C(c2ccccc2)c2ccccc2NC1=O)c1cccc(SC(F)(F)F)c1 (racemic)         <            4.00
3  CN1C(=O)C(NC(=O)Nc2ccc(Cl)cc2)N=C(c2ccccc2)c2ccccc21 (centres unmarked)         =            7.64
4  O=C(NCC1N=C(c2ccccc2F)c2ccccc2NC1=O)c1cc2ccccc2[nH]1 (racemic)         =            4.52
5  CN1C(=O)[C@@H](NC(=O)Nc2ccc(Cl)cc2)N=C(c2ccccc2)c2ccccc21         =            6.39
6  CN1C(=O)[C@H](NC(=O)c2ccccc2Cl)N=C(c2ccccc2F)c2ccccc21         =            4.80
7  CN1C(=O)C(NC(=O)Nc2ccc(Br)cc2)N=C(c2ccccc2)c2ccccc21 (centres unmarked)         =            7.32
8  CN1C(=O)[C@@H](NC(=O)c2ccc(Cl)cc2)N=C(c2ccccc2F)c2ccccc21         =            5.54

###

Target: CCK receptor (pancreas) (Rattus norvegicus)
Construct: The whole pancreas was dissected free of fat tissue and was homogenized; from tissue; host or cells: rat pancreas membranes (Sprague-Dawley)
Sequence (P30551 1-444): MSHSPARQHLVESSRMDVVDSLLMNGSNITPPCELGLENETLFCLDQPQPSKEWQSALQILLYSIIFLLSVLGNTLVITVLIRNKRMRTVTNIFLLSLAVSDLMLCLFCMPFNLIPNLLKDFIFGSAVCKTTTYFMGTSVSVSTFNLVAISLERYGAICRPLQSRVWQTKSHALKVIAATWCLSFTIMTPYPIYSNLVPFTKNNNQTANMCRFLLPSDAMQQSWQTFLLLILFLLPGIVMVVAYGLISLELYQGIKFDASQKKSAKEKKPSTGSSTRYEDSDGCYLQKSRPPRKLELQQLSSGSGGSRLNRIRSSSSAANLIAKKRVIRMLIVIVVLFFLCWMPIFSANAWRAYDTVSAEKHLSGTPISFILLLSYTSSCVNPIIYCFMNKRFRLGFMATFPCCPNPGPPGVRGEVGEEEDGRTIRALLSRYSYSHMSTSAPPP
Assay: CCK Receptor Binding (Pancreas): inhibition of ^125 I-CCK-33 binding
Parameters: species or system Male Sprague-Dawley rats
Conditions: rat pancreas membranes, ^125 I-CCK-33, 37° C., 30 minutes; read-out: IC50 ^125 I-CCK Pancreas
pIC50: −log10 of the molar value.
metric: pIC50

> print(dat)
                                    compound  measured.value
 1  CN1C(=O)C(NC(=O)Nc2cccc(Cl)c2)N=C(c2ccccc2)c2ccccc21 (stereo not shown)            8.09
 2  CN1C(=O)[C@H](NC(=O)c2cccc(I)c2)N=C(c2ccccc2F)c2ccccc21            7.82
 3  O=C1Nc2ccc(Cl)cc2C(c2ccccc2)N[C@@H]1Cc1c[nH]c2ccccc12 (stereo partly shown)            4.92
 4  O=C1Nc2ccc(Cl)cc2C(c2ccccc2)N[C@H]1Cc1c[nH]c2ccccc12 (stereo partly shown)            4.12
 5  CN1C(=O)C(NC(=O)NC(C)(C)C)N=C(c2ccccc2)c2ccccc21 (stereo not shown)            5.17
 6  CC(=O)N1C(c2ccccc2F)c2ccccc2N(C)C(=O)[C@H]1Cc1cn(C)c2ccccc12 (stereo partly shown) [Example 27b]            4.00
 7  CN1C(=O)[C@@H](NC(=O)c2ccccc2Cl)N=C(c2ccccc2)c2ccccc21            5.77
 8  CN1C(=O)C(C(=O)c2ccsc2)=NC(O)(c2ccccc2)c2ccccc21 (racemic) [Example 53b]            4.72
 9  COc1cccc(NC(=O)NC2N=C(c3ccccc3)c3ccccc3N(C)C2=O)c1 (stereo not shown)            8.21
10  CN1C(=O)[C@H](NC(=O)c2ccccc2Cl)N=C(c2ccccc2F)c2ccccc21            5.47
11  CN1C(=O)[C@@H](NC(=O)Nc2ccc(Cl)cc2)N=C(c2ccccc2)c2ccccc21            7.59
12  CN1C(=O)[C@H](NC(=O)Nc2cccc(Cl)c2)N=C(c2ccccc2)c2ccccc21            6.54
13  CN1C(=O)[C@@H](NC(=O)c2ccc(C(C)(C)C)cc2)N=C(c2ccccc2F)c2ccccc21            7.72
14  CN1C(=O)C(NC(=O)Nc2ccc(Cl)c(Cl)c2)N=C(c2ccccc2)c2ccccc21 (stereo not shown)            7.59
15  CN1C(=O)[C@@H](NC(=O)c2ccc(C#N)cc2)N=C(c2ccccc2F)c2ccccc21            7.37
16  CN1C(=O)C(NC(=O)Nc2cccc(Br)c2)N=C(c2ccccc2)c2ccccc21 (stereo not shown)            8.36
17  CCOC(=O)CN1C(=O)C(NC(=O)c2cc3ccccc3[nH]2)N=C(c2ccccc2F)c2ccccc21 (stereo not shown)            8.52
18  O=C(Nc1ccc(Cl)cc1)NC1N=C(c2ccccc2)c2ccccc2N(CC(=O)OCc2ccccc2)C1=O (stereo not shown)            5.89
19  CN1C(=O)[C@H](NC(=O)c2ccccc2Cl)N=C(c2ccccc2)c2ccccc21            4.96
20  COc1cccc(NC(=O)N[C@H]2N=C(c3ccccc3)c3ccccc3N(C)C2=O)c1            8.89
21  CCCCCc1ccc(C(=O)N[C@H]2N=C(c3ccccc3)c3ccccc3N(C)C2=O)cc1            6.60
22  CN1CCN(C(=O)CN2C(=O)C(NC(=O)Nc3ccc(Cl)cc3)N=C(c3ccccc3)c3ccccc32)CC1 (stereo not shown)            5.92
23  CN1C(=O)[C@@H](N)N=C(c2ccccc2)c2ccccc21 [Example 85a]            4.00
24  CN1C(=O)C(NC(=O)Nc2ccc([N+](=O)[O-])cc2)N=C(c2ccccc2)c2ccccc21 (stereo not shown)            6.68
25  COc1cc(NC(=O)NC2N=C(c3ccccc3)c3ccccc3N(C)C2=O)cc(OC)c1 (stereo not shown)            6.51
26  Cc1ccc(NC(=O)N[C@@H]2N=C(c3ccccc3)c3ccccc3N(C)C2=O)cc1            5.51
27  CCNC(=O)CN1C(=O)C(NC(=O)Nc2ccc(Cl)cc2)N=C(c2ccccc2)c2ccccc21 (stereo not shown)            5.68
28  CN1C(=O)C(NC(=O)NCc2ccccc2)N=C(c2ccccc2)c2ccccc21 (stereo not shown)            6.31
29  CN1C(=O)C(NC(=O)c2ccc(Cl)cc2N)N=C(c2ccccc2)c2ccccc21 (stereo not shown)            9.05
30  CC(C)(C)OC(=O)N[C@H](Cc1c[nH]c2ccccc12)C(=O)Nc1ccccc1C(=O)c1ccccc1F            4.17
31  Cc1ccc(NC(=O)NC2N=C(c3ccccc3)c3ccccc3N(C)C2=O)cc1 (stereo not shown)            7.24
32  CN1C(=O)C(NC(=O)Nc2ccccc2[N+](=O)[O-])N=C(c2ccccc2)c2ccccc21 (stereo not shown)            8.52
33  CN1C(=O)C(NC(=O)Nc2ccccc2)N=C(c2ccccc2)c2ccccc21 (stereo not shown)            8.08
34  Cc1cccc(NC(=O)NC2N=C(c3ccccc3)c3ccccc3N(C)C2=O)c1 (stereo not shown)            8.09
